target_or_system: GST tagged LXRbeta LBD (ligand binding domain) (Homo sapiens, UniProt P55055)
Construct: purchased Invitrogen pv4658.pps
Sequence (P55055 222-460 limits assumed): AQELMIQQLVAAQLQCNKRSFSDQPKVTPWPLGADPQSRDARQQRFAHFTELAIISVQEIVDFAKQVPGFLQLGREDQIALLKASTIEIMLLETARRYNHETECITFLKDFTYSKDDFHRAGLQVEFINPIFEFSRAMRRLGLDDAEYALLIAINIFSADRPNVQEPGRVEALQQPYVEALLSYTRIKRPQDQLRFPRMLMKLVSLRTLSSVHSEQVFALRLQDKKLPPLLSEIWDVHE
assay_info: LanthaScreen TR-FRET Liver X Receptor Coactivator Assay, LXR beta-LBD (co-activator recruitment; IP and % Emax relative to T0901317)
Type: biochemical
condition: efficacy at max dose in relation to reference T0901317, LXR beta-LBD; read-out: LXR beta actiivty at max dose (%)
Emax less than 60% is 1; Emax greater than or equal to 60% is 0.

Please review the entries below; each comes with its answer.
>>> assigned_class("COc1cccc([C@@]2(C(=O)N(C)CCCC3CCN(c4ccc(C(=O)N(C)C)c(Cl)n4)CC3)CCCO2)c1")
1
>>> assigned_class("CNC(=O)c1ccc(N2CCC3(CC2)C[C@@H]3CCN(C)C(=O)[C@](O)(c2cccc(OC)c2)C(F)(F)F)cc1Cl")
1
>>> assigned_class("COc1cccc([C@@](O)(C(=O)N[C@@H](C)CCC2CCN(c3ccc(C(=O)N(C)C)c(Cl)n3)CC2)C(F)(F)F)c1")
1

Request: Consider `CN(C)C(=O)c1ccc(N2CCC(CCCN(C)C(=O)[C@@]3(c4ccccc4Cl)CCCO3)CC2)nc1Cl` . Does its Emax lie strictly below 60%?
Response: 1

Request: Please give the result for `COc1cccc([C@@](O)(C(=O)N(C)CCCC2CCN(c3ccc(C(=O)N(C)C4CC4)c(Cl)n3)CC2)C(F)(F)F)c1` too.
Response: 1

Request: Please give the result for `COc1cccc([C@@](O)(C(=O)N(C)CCCC2CCN(c3ccc(C(=O)N4CC(NC(=O)OC(C)(C)C)C4)c(Cl)n3)CC2)C(F)(F)F)c1` too.
Response: 0

Request: Please give the result for `CN(C)C(=O)c1ccc(N2CCC(CCCN(C)C(=O)[C@@](O)(c3ccccc3)C3CCC3)CC2)nc1Cl` too.
Response: 0

Request: Please give the result for `CCc1cccc([C@@](O)(C(=O)NCCCC2CCN(c3ccc(C(=O)N(C)C)c(Cl)n3)CC2)C(F)(F)F)c1` too.
Response: 1

Request: Please give the result for `COc1cccc([C@@](O)(C(=O)N(C)CCCC2CCN(c3ccc(C(=O)N4CC[C@@H](CO)C4)c(Cl)n3)CC2)C(F)(F)F)c1` too.
Response: 1

Request: Please give the result for `COc1cccc([C@@](O)(C(=O)N(C)CCCC2CCN(c3ccc(C(=O)N(C)C)c(Cl)n3)CC2)C(F)F)c1` too.
Response: 1

Origin of values: patent US10961215B2
